Source of measurements: the NTF2 design screens of Basanta et al. (2020)

- Experiment Summary: protease stability score; higher = more stable; yeast display proteolysis, trypsin and chymotrypsin;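 also: log10 excess protease needed over predicted unfolded state with 0 meaning unfolded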
sequences and their reported protease stability score
Keep the answer to the number alone.

[in] Fill in protease stability score for record DSNALSRAMEYLRVVEQGDPKRAKQLFDPNARFIYGDRTVHGKDRIADMLRHERDDMRLQIDDLKTTVQGDKVVVRYKAVRERNGHPETFRAEFRVEFNNGKIEQQNYQVHK
[out] 0.25

[in] Fill in protease stability score for record DEEKQKEYADRFNEILKSGNEDEFRKMADEDVTAQYGDKEVHGREEVTKTMSRFLRTVDKIKVDSVEVHNGRVIIHFVVRVNGQDQRVVMEFKVHNGKIKELVMRSQ
[out] 1.51

Turning now to a further sequence:
[in] Fill in protease stability score for record DEEDRHELQRRAEHGDFLNLAHNADPNAHIKVGDKDLTGREDLDHVLRKMHNRIDRYHLVHVTKTGDKLVVRAQARVDGRDIEFKMEIRARNGRIKEVSIRFRSEEDQKTFEKLLK
[out] 0.059

###

- Experiment Summary: protease stability score; higher = more stable; yeast display proteolysis, trypsin and chymotrypsin;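 also: log10 excess protease needed over predicted unfolded state with 0 meaning unfolded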
Assay Readout: protease stability score
Keep the answer to the number alone.

The cases that follow already have their protease stability score on record.
[in] Fill in protease stability score for record DSEAQKIAEKLHEAWNTNNPNEAQHLMDPNAHVRVGDKEIDGMDQYVREMQRLLDKLRLEVKDWDVRAHNGNVTLRANARVDVNGQPQEYTYVIVMQVKNGRVKELHLHIDEEELRTLES
[out] 1.02

[in] Fill in protease stability score for record DTRSVMKDILKKIQENLKTGDPQHAADLFDPNVSVRVGDKELRGREQVRKKMKEERDRVDHVDMRIHDMKVSNGRVVVHYTWTVTVNGRKETNRAQLHADNEGDKALVTEVNVK
[out] -0.106

[in] Fill in protease stability score for record DQRERQEHAEHFNRVLQTNDPDRIKKLFDPNAKLQIGDSTFTGREDIDDAAKELKEQADHITVDRVHVHGNKVTLRFVMNVDGKSADATVTMIVKNGRAKEVHFDPRLEEQIKK
[out] -0.407

[in] Fill in protease stability score for record DEEIQKLIDDALKAYERGNEDQQAELFDENARVRIGDQTLHGREDLKEHLKRVKDHINFRIESYDVKVHNGRMHATLTLVMQIDGQPDQWSVHLRADVNNGRIKHFEMDMDPEKQRELTK
[out] -0.044

[in] Fill in protease stability score for record DDEAKEHVEDFIRALKDNNPDEVDEYIDKDAKVHVGDTIYHGREEVRRDVERKKRHLRFDYEDVKIEVHGEKVVAHMKVEYQHNGRPDKARVILDVRFHNGRVRSLHIQEQK
[out] -0.095

[in] Fill in protease stability score for record DEEKVKVARKFMEVVKENNEEDAHRLASENVDVVVGDKRLHGRSNLMRKLRKEREEWRFRISIKDIKVENGRVHIHFKVQRVVNGQPQTYEQRMVMVFHNGRVKSVHYRIPEEQLNRIES
[out] 0.463

Others:
[in] Fill in protease stability score for record DDQAKRIVDEILTNMRTGDEDKLKTLIDPNARARVGEKEVHGWDDALKEIADKLRDIRIQIDRFSVKVTGDKVKIDFTAQNEHNGQPSTKKYERNYKIKNGRVKHFEDVSTQ
[out] -0.192

[in] Fill in protease stability score for record DEHEAEKLLKLLTENDPRQFQNEADKNVRVFYGDKEVHGREQFHTWVQRVRERVDTLEIKRVETRPGRLEVKFRVNVNGQTLEMVLVIVVHNGKIQDVKLHARDHDVMKRWKEAVS
[out] 0.82

[in] Fill in protease stability score for record DRTAEKVLRQFLHAIRDNNPEQMVDLMDPNVTLEIGDKEITGRESAARTAKTRNDEQRMSLSDYRIDVKGDRITADIDQYNEHNGKPRRHQYILDVNIHNGKIKSLVYESDK
[out] -0.029

[in] Fill in protease stability score for record DEKDKARRMAETIDKLAERNDFEELAKNADPDAKVTVGDKTFHGEENLVKHLQEERKRIDQVRIEVKDVKVQGDEIRINAKYEATHNGRRVDQQVRVIVEVHNGRLVISEMQYE
[out] 0.979

[in] Fill in protease stability score for record EDRHARRVANDFVRAVRKGDETRLKEQFDEDAEVQVGDTTYTGKERVVKHAQDFANSVDHLDVTDLKVNEDHASLSARVNINGRQDTIRIELRVHNGRLKRVNYDTQ
[out] -0.032

[in] Fill in protease stability score for record DDKKAQDFARKFADNLRTGNERQWEKMFDENVRIKYGDKTLHGREVARKEARTFHEQVDHMEVRSITAQGNQLVIMFEVKHNGRTDRMVWRAKVENGKIQHQTVTSQ
[out] -0.084

[in] Fill in protease stability score for record DDDKQRKVEQVNRAWNEGDEETWKNNFDPNARVNVGEFNYEGMEEISKNIRDQKEQWRIEFKRMDLNMHGNKATAHFEATTNHNGNPDEFRKRLEAEFQGDRLKHMRVTEDR
[out] -0.235

[in] Fill in protease stability score for record EEEQLKTVKQWQENEKTGNEEELKKQADPNAKFRIGDHEVRGMENYAHDVIRRVKDARVDYETISHDVNGDRVVIRAVYRMNHNGRPSSYEYTVHYEMHNGKMKNVTVNKRQ
[out] 0.041

###

- Experiment Summary: protease stability score; higher = more stable; yeast display proteolysis, trypsin and chymotrypsin;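 also: log10 excess protease needed over predicted unfolded state with 0 meaning unfolded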
Class (required): determined from protease stability score; valid ranges are low value = under -0.03, medium value = from -0.03 up to 0.3, high value = 0.3 and over

Illustrative cases are given below, each with its answer.
[in] Please let me know in which category the item DERQVERIDRHLKALEHGDEKTLVEMIDPNAHFSVGDKEIHGREEYAHQQRRRVKESRFQVTIKDVQVNGDTVHIKYTSDQKHNGQPREDSNVMVMDATGERIESAKVTKDQ belongs.
[out] low value

[in] Please let me know in which category the item DEENRQLAENFLTAMEDNNPEHLSELADPNAKFHYGNKRIHGREKFMHEVEHRNKRIRYSIKSYKITVSGDKIEIDLTFTFRHNGQPDERRRTIHMQMENGQIRSVEYNDNK belongs.
[out] high value

Next sequence, please.
[in] Please let me know in which category the item DDDHATEIAKRMIDNFTTGNEENVKRLVDPNATVRIGDKRFHGRDHIRDAIRQIKERIDHIQVRTFTAHNGRIRITAEVKINGQSKEIHIELRIHNGHVVFFQLNVRNEEEWKTALS belongs.
[out] high value

###

sequences and their reported protease stability score
- Experiment Summary: protease stability score; higher = more stable; yeast display proteolysis, trypsin and chymotrypsin;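 also: log10 excess protease needed over predicted unfolded state with 0 meaning unfolded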
Keep the answer to the number alone.

The cases that follow already have their protease stability score on record.
[in] Fill in protease stability score for record DERARNVLKRIMHALRENNEEEFKKNADPNVRIHVGDKQYHGREDAARKIMTTLKSMKERIDVKSVDVEGDQIELHADVQVEENGQPDTKEIRVHADIQGDKMRSMKVDDTK
[out] -0.308

[in] Fill in protease stability score for record DDDLRRRLHEFWENMQEGDEKRLREMADPNVRFEVGDKSIHGREEFARKVKELHEQQRFSVRIDRMDNQGNKVDITFHVTQKHNGRPNRYTARVTITAHNGKIKSVSVDISQ
[out] 0.391

[in] Fill in protease stability score for record DERWKEKFEQMVRDQKTGNEDEVAKYFDKNAEIKVGDQRFHGREQLREHLREQRRQMRVDIDIKHVDVKGNHITVEYEFRENHNGRPTRRKATLRAEYHNGKIQRMRIDKSG
[out] 1.33

[in] Fill in protease stability score for record DEERVQQMLEQAFKAIQNGNEEQMQKLGKPNVEYKYVDHEYEGPDAARVMVQLVKRVGAEVKQQKVEVKGNTATAVFQYHDGDQTVETTAEVEYEGDKMKKARVELTDEVKKVVHKG
[out] -0.117

[in] Fill in protease stability score for record DREVQEHIEQFWKVYRTGDEKRIVELLDPNVKFDYGDRTVEGRETVREEVKKHHDEQRVDFKSVDVKVTNGRIDVKVRAKYHHNGTPDEQKFTASASLNNGRVKHMSRQTSK
[out] -0.181

Others:
[in] Fill in protease stability score for record DEDEERQFAKDLMRAMEKNDPKLLVKLADKDVSINYGEKQVHGKRQAEQLMRDLHKRVDDIKVRHVSMHNGSLTINLVLNVNGHNENLVAIVRVENGRIKSLTFEHR
[out] 0.861

###

sequences and their reported protease stability score
- Experiment Summary: protease stability score; higher = more stable; yeast display proteolysis, trypsin and chymotrypsin;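 also: log10 excess protease needed over predicted unfolded state with 0 meaning unfolded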
Keep the answer to the number alone.

The cases that follow already have their protease stability score on record.
[in] Fill in protease stability score for record DPKKAHEVAEEVMKAFVNGNDEQVKRLLKPDVTAKVADRETQGPEQIVRYLRRFDKLGVQYHEEETRKEGNRVEVHTKYKKGDQEATVTVVYEADNGKVDRIEVRYDEEMKKLFEKG
[out] 0.279

[in] Fill in protease stability score for record DDDEIEKIARQLVKALQKGDFKHFVELMDKDVRLEYGDKEVHGREQAKQAMKELAERVDHVQLDDYKVHNGTAEIRLKLNFNGKSADVVFDMRIEDGRVKKIVIRYRSEEHRKHIDT
[out] 1.24

[in] Fill in protease stability score for record DEEVSEAVQRYLNALKHNNPDQVQEQMDPNARVQYGDKVLTGREDIKTFMDTKIEQMRLEIKSVSVDVHGEEVRVEADVVYTHNGQPRRNKITITARVHNGVFKSMRVETRG
[out] -0.064

[in] Fill in protease stability score for record DEKEIHEIAETFVEVLRNGNHDDLKELMDENVKLVYGDKELQGHHRAASHLAELVSRVDHMSVDSITVNGDSVKVIMQFVVNGVTAHITIIIKMTNGRIKELEIRYTNEDQRRQVDK
[out] 0.941

[in] Fill in protease stability score for record DEEDLERMQDFMRAINKGDEDRLTKLVDENVHWVVGDKRVHGREQLRKEVDRRREKMSIKFDRVDAHADNGHAVVNIEYNVKHNGQPTSNFVRVQAEATNGKIKEVVVQEDK
[out] -0.279

Others:
[in] Fill in protease stability score for record DDQEIAEQAARDFDTAVQEGDEDQIVRMADPNVQLQIGDERYRGREDLRKWIKDIRRQVDHVDVRVRDLKVQGEHVRARIEVQYTENGKTRRYQFEMTNNIHNGRVRMTQVNEK
[out] 0.948
